test name: qHTS assay to identify small molecule antagonists of the estrogen receptor beta (ER-beta) signaling pathway - cell viability counter screen (AID 1259382); also: nearly all actives have a fitted effect of over 55% in size
study conditions: ER-beta-UAS-bla HEK293T viability, CellTiter-Glo luminescence, 16 h; series mostly up to 92.4 µM
Inconclusive results are not listed. Calls of active or inactive are those of the source. Calls follow the shape of the dose curve; as a rule, active = well fitted cell-killing curve with a large enough effect in the repeat runs; inconclusive = weak or mixed curves; inactive = flat fitted curve, though single readings scatter.
Outcome codes: active, inactive

# molecule, class
measured = [
    ("[O-][n+]1ccccc1SSc1cccc[n+]1[O-]", "active"),
    ("CCCCCCCCCCCCCCCCCC[N+](C)(C)C", "active"),
    ("Cc1cc(N)c(S(=O)(=O)O)cc1Cl", "inactive"),
    ("CCCCCCCCCCn1cc[n+](CCCCCCCCCC)c1C", "active"),
    ("OCCCCCCCCCCCCBr", "inactive"),
    ("CCCC(C)c1ccccc1O (stereo not drawn)", "inactive"),
    ("CCCCCOc1ccccc1/C(=C\\SC)n1ccnc1", "active"),
    ("C=C(C)C(=O)OCC[N+](C)(C)C", "inactive"),
    ("Nc1ccc2cc(S(=O)(=O)O)cc(O)c2c1N=Nc1ccccc1C(F)(F)F", "inactive"),
    ("OC1(c2ccc(Cl)c(C(F)(F)F)c2)CCN(CCCC(c2ccc(F)cc2)c2ccc(F)cc2)CC1", "active"),
    ("CC(C)(C)CC(C)(C)c1ccc(O)c(Cc2ccc(Cl)cc2Cl)c1", "active"),
    ("O=[N+]([O-])c1ccccc1Nc1ccccc1", "inactive"),
    ("CCCCCCCC(=O)[O-].CCCCCCCC(=O)[O-].[Zn+2]", "inactive"),
    ("CC1=C(/C=C/C(C)=C/C=C/C(C)=C/C=O)C(C)(C)CCC1", "active"),
    ("CN(C)c1ccc(C2(c3ccc(N(C)C)cc3)OC(=O)c3cc(N(C)C)ccc32)cc1", "inactive"),
    ("CC(C)(C)C(=O)OCOC(=O)[C@@H]1N2C(=O)[C@@H](NC(=O)[C@H](N)c3ccccc3)[C@H]2SC1(C)C", "inactive"),
    ("O=C(Oc1ccccc1)c1ccccc1C(=O)Oc1ccccc1", "inactive"),
    ("O=c1cc(-c2ccc(O)cc2)oc2cc(O)cc(O)c12", "inactive"),
    ("CC[C@@]1(O)C(=O)OCc2c1cc1n(c2=O)Cc2c-1nc1ccccc1c2/C=N/OC(C)(C)C", "inactive"),
    ("CCOC(=O)/C=C(C)/C=C/C=C(C)/C=C/c1c(C)cc(OC)c(C)c1C", "inactive"),
    ("COc1ccc(-c2ccc3cc(C(=O)O)ccc3c2)cc1C12CC3CC(CC(C3)C1)C2", "inactive"),
    ("CCCCCCCCNC(C)C(O)c1ccc(SC(C)C)cc1 (stereo not drawn)", "active"),
    ("O=C(Nc1cccc([N+](=O)[O-])c1)c1cc2ccccc2cc1O", "active"),
]

###

test name: qHTS assay to test for compound auto fluorescence at 535 nm (green) in HepG2 cell free culture (AID 720686)
study conditions: Cell-free medium, green autofluorescence 485/535 nm; series mostly up to 91.3 µM
The source made the active and inactive calls. The call rests on the fitted dose curve; in most records, active means well fitted curve in the direction sought with a large enough effect in the repeat runs; inconclusive means weak or mixed curves; inactive means flat fitted curve, though single readings scatter.
property label: fluorescence, % of fluorescein control

# compound, property label, obs value
data = [
    ("CCCCCOC(=O)CCCC", "fluorescence, % of fluorescein control", "inactive"),
    ("O=C(c1ccc(O)cc1O)c1ccc(O)cc1O", "fluorescence, % of fluorescein control", "inactive"),
    ("CC[C@@]1(O)C(=O)OCc2c1cc1n(c2=O)Cc2cc3c(CN(C)C)c(O)ccc3nc2-1", "fluorescence, % of fluorescein control", "inactive"),
    ("CC/C(=C(\\c1ccc(O)cc1)c1ccc(OCCN(C)C)cc1)c1ccccc1", "fluorescence, % of fluorescein control", "inactive"),
    ("Cc1[nH]cnc1C[C@H]1CCc2c(C)c3ccccc3n2C1=O", "fluorescence, % of fluorescein control", "inactive"),
    ("Oc1ccc2c(c1)-c1ccccc1C2", "fluorescence, % of fluorescein control", "inactive"),
    ("CCCCCCCCCCCC(=O)NCCCN(C)C", "fluorescence, % of fluorescein control", "inactive"),
    ("CCC(C)Nc1ccc(NC(C)CC)cc1 (stereo unspecified)", "fluorescence, % of fluorescein control", "inactive"),
    ("[O-][n+]1ccccc1SSc1cccc[n+]1[O-]", "fluorescence, % of fluorescein control", "inactive"),
    ("CCCCCCOC(=O)c1ccc(O)cc1", "fluorescence, % of fluorescein control", "inactive"),
    ("O=C1c2c(O)ccc(Nc3ccc(CCO)cc3)c2C(=O)c2c([N+](=O)[O-])ccc(O)c21", "fluorescence, % of fluorescein control", "inactive"),
    ("C=C(C)C(=O)OCC(O)COc1ccc(C(C)(C)c2ccc(OCC(O)COC(=O)C(=C)C)cc2)cc1 (stereo unspecified)", "fluorescence, % of fluorescein control", "inactive"),
    ("CNc1ccc(O)cc1", "fluorescence, % of fluorescein control", "inactive"),
    ("CCCCCCCCCCCCCCCC(=O)OC[C@H](O)[C@H]1OC(=O)C(O)=C1O", "fluorescence, % of fluorescein control", "inactive"),
    ("CCCCCCCCCCCCCCCCCC[N+](C)(C)C", "fluorescence, % of fluorescein control", "inactive"),
    ("COc1cccc(N)c1", "fluorescence, % of fluorescein control", "inactive"),
    ("S=c1[nH]c2ccccc2s1", "fluorescence, % of fluorescein control", "inactive"),
    ("c1ccc(CSCc2ccccc2)cc1", "fluorescence, % of fluorescein control", "inactive"),
    ("CCCCCCCCOC(=O)c1ccc(O)cc1", "fluorescence, % of fluorescein control", "inactive"),
    ("CCN1/C(=C/C=C/c2sc3ccccc3[n+]2CC)Sc2ccccc21", "fluorescence, % of fluorescein control", "inactive"),
    ("C[n+]1cc2c3c(ccc2c2ccc4cc5c(cc4c21)OCO5)OCO3", "fluorescence, % of fluorescein control", "inactive"),
    ("C[C@@H](NCCCc1cccc(C(F)(F)F)c1)c1cccc2ccccc12", "fluorescence, % of fluorescein control", "inactive"),
    ("Clc1ccccc1C(c1ccccc1)(c1ccccc1)n1ccnc1", "fluorescence, % of fluorescein control", "inactive"),
    ("Nc1c(Cl)cc(Cl)cc1Cl", "fluorescence, % of fluorescein control", "inactive"),
    ("O=C(Nc1cccc(Cl)c1)OCC#CCCl", "fluorescence, % of fluorescein control", "inactive"),
    ("COc1cc(-c2ccc(N=C=O)c(OC)c2)ccc1N=C=O", "fluorescence, % of fluorescein control", "inactive"),
]

###

system tested: Androgen receptor (Homo sapiens) (UniProt P10275)
Sequence (P10275 whole entry, looked up): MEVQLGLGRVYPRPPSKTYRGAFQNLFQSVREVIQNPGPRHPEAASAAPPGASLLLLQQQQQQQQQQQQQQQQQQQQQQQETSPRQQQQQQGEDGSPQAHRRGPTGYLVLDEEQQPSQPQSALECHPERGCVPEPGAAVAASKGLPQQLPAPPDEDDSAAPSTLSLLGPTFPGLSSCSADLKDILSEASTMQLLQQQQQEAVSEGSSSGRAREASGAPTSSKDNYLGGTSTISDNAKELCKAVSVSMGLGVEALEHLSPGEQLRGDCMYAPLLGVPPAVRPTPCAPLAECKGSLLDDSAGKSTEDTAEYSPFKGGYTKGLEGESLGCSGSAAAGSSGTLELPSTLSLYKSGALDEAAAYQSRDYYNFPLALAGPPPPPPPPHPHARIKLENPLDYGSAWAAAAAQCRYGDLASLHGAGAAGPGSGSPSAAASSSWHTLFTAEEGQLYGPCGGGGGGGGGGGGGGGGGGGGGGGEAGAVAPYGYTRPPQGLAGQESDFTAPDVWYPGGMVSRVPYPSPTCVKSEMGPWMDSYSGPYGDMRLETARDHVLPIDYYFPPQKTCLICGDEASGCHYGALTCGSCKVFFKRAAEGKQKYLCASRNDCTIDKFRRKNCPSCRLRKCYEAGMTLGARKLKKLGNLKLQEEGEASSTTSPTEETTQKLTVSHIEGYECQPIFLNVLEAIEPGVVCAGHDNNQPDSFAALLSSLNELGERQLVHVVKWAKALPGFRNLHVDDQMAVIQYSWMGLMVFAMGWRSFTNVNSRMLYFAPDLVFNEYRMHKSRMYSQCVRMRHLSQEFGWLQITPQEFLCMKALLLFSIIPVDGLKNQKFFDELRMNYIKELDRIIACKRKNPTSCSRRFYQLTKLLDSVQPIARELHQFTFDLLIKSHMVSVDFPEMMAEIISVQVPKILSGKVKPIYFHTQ
test name: qHTS assay to identify small molecule agonists of the androgen receptor (AR) signaling pathway (AID 743036)
study conditions: HEK293 AR-UAS-bla GripTite, beta-lactamase FRET ratio, 16 h; series mostly up to 62.4 µM
Records with an inconclusive call do not appear. Calls of active or inactive are those of the source. Calls come from the whole dose curve; as a rule, active = well fitted activation curve with a large enough effect in the signal ratio in the repeat runs, with a control signal flat (not every such curve was filed as active); inconclusive = weak or mixed curves, or effect the other way; inactive = no such curve, though single readings can be large or run the other way; the % refers to the signal ratio.
Outcome codes: active, inactive

# smiles input, system tested, class
measured = [
    ("O=C(O)c1ccc(Cl)c(Cl)c1", "Androgen receptor (Homo sapiens) (UniProt P10275)", "inactive"),
    ("Oc1ccc2c(c1)-c1ccccc1C2", "Androgen receptor (Homo sapiens) (UniProt P10275)", "inactive"),
    ("Clc1ccc2cc3ccccc3cc2c1", "Androgen receptor (Homo sapiens) (UniProt P10275)", "inactive"),
    ("O=C(Nc1cccc([N+](=O)[O-])c1)c1cc2ccccc2cc1O", "Androgen receptor (Homo sapiens) (UniProt P10275)", "inactive"),
    ("Cc1ccc(O)c2ncccc12", "Androgen receptor (Homo sapiens) (UniProt P10275)", "inactive"),
    ("O=C1CCCc2c1cc1ccc3cccc4ccc2c1c34", "Androgen receptor (Homo sapiens) (UniProt P10275)", "active"),
    ("CCCCCCOC(=O)c1ccc(O)cc1", "Androgen receptor (Homo sapiens) (UniProt P10275)", "inactive"),
    ("C=C(C)C(=O)OCC[N+](C)(C)C", "Androgen receptor (Homo sapiens) (UniProt P10275)", "inactive"),
    ("NNC(=O)c1cccc(C(=O)NN)c1", "Androgen receptor (Homo sapiens) (UniProt P10275)", "inactive"),
]

###

test name: qHTS RealTime-Glo MT Cell Viability Assay in HepG2 cells - 16 hour (AID 1224885); also: nearly all actives have a fitted effect of over 50% in size
study conditions: RealTime-Glo luminescence; series mostly up to 76.8 µM
Inconclusive results are not listed. Calls of active or inactive are those of the source. Calls come from the whole dose curve; as a rule, active = well fitted cell-killing curve with a large enough effect in the repeat runs; inconclusive = weak or mixed curves; inactive = flat fitted curve, though single readings scatter.
Outcome codes: Y (active), N (inactive)

# compound, class
records = [
    ("CCCCC(CC)COC(=O)c1ccccc1C(=O)O (stereo unspecified)", "N"),
    ("CSc1cnc(C)cn1", "N"),
    ("C=CC(=O)OCC(CO)(COCC(COC(=O)C=C)(COC(=O)C=C)COC(=O)C=C)COC(=O)C=C", "Y"),
    ("O=C1CCCc2c1cc1ccc3cccc4ccc2c1c34", "N"),
    ("O=C(OCC1CO1)C1CCCCC1C(=O)OCC1CO1 (stereo unspecified)", "N"),
    ("CCCCCOc1ccccc1/C(=C\\SC)n1ccnc1", "N"),
    ("N#CC1(c2ccc(F)cc2)CCC(=O)CC1", "N"),
    ("CS(=O)(=O)CCNCc1ccc(-c2ccc3ncnc(Nc4ccc(OCc5cccc(F)c5)c(Cl)c4)c3c2)o1", "Y"),
    ("COc1cc(-c2nc(NC(=O)c3cc4cc(C)cc(C)c4n3CC(=O)O)sc2CCC2CCCCC2)c(OC)cc1Cl", "Y"),
    ("CCN(CC)CCNC(=O)c1c(C)[nH]c(/C=C2\\C(=O)Nc3ccc(F)cc32)c1C", "Y"),
    ("CCCCCCCC[N+](CCCCCCCC)(CCCCCCCC)CCCCCCCC", "Y"),
]
